Molecular target: 5-HT1A receptors (Rattus norvegicus, UniProt P19327)
Sequence (P19327 whole entry): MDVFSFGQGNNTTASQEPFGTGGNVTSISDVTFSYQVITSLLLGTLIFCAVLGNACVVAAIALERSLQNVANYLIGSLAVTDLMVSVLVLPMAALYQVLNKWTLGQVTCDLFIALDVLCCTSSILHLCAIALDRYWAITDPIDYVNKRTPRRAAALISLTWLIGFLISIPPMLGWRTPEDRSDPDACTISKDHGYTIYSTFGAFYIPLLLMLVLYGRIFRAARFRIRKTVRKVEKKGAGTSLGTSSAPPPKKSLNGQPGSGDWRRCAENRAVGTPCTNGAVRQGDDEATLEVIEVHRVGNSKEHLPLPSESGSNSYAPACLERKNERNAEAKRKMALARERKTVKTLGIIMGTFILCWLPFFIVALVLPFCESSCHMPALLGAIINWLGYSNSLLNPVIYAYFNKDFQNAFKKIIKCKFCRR
Experiment: Corticosterone secretion (CS), plasma, agonist and antagonist activity
Format: in vivo, male Wistar rats
Design: from tissue; host or cells: whole animal, male Wistar rat (in vivo)
Settings: agonist: induction of CS; s.c.; minimum effective dose
RECORDED_METRIC: Corticosterone secretion M.E.D.

> print(dat)
                                   compound                             target.entity     obs.value
1  O=C1CC2(CCCC2)CC(=O)N1CCCCN1CCN(c2ncccn2)CC1 [buspirone, reference compound]  5-HT1A receptors (Rattus norvegicus, UniProt P19327)   > 2.5 mg/kg
2  c1ccc2c(c1)CC(N1CCN(c3cccc4c3OCCCO4)CC1)C2  5-HT1A receptors (Rattus norvegicus, UniProt P19327)   > 2.5 mg/kg
3  c1ccc2c(c1)CC2CN1CCN(c2cccc3c2OCCO3)CC1 (racemic)  5-HT1A receptors (Rattus norvegicus, UniProt P19327)   > 2.5 mg/kg
4  c1ccc2c(c1)CCC2CN1CCN(c2cccc3c2OCCO3)CC1 (racemic)  5-HT1A receptors (Rattus norvegicus, UniProt P19327)   > 2.5 mg/kg
5  c1ccc2c(c1)CC(N1CCN(c3cccc4c3OCCO4)CC1)C2  5-HT1A receptors (Rattus norvegicus, UniProt P19327)  > 10.0 mg/kg
